Exercise: state measured protein stability index for each of the variants provided.
B1: SLC19A2 (parent)
chain: IYPVWTYSYLVLLFPVFLATDYLR

- Variants of: B1
- experiment summary: protein stability index of a GFP-peptide fusion (GPS, HEK-293T) (PSI 1-6); higher = more stable;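 note: lentivirally expressed fusions sorted by FACS into six bins by GFP to DsRed ratio, PSI derived from sequencing read proportions per bin multiplied by bin number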
- cond: c terminus: a fixed tail appended
Lab note: record the figure alone, no unit after it.

protein stability index in this record for IYPVWTYSYLVLLFPVFLATDYLG [R24G] : 2.58

protein stability index in this record for IYPKWTYSYLVLLFPVFLATDYLR [V4K] : 2.96

protein stability index in this record for IYPVWTYSYLVLLPPVFLATDYLR [F14P] : 2.48

protein stability index in this record for IYPVPTYSYLVLLFPVFLATDYLR [W5P] : 3.19

protein stability index in this record for IYPVWTYSYLVLLFPVFRATDYLR [L18R] : 4.66

protein stability index in this record for IYPVVTYSYLVLLFPVFLATDYLR [W5V] : 2.65

protein stability index in this record for IYPVWTYSYLVNLFPVFLATDYLR [L12N] : 1.72

protein stability index in this record for IYPTWTYSYLVLLFPVFLATDYLR [V4T] : 3.3

protein stability index in this record for IYPVWTYSYLVLLFPVFNATDYLR [L18N] : 2.84

protein stability index in this record for IAPVWTYSYLVLLFPVFLATDYLR [Y2A] : 3.21

protein stability index in this record for IYPVWTYSYLVLLFPVFLATDYLP [R24P] : 1.99

protein stability index in this record for IYPVWTYSYLVLLWPVFLATDYLR [F14W] : 2.47

protein stability index in this record for IYPVWTYSYLVLLFSVFLATDYLR [P15S] : 2.5

protein stability index in this record for IYPVWTYSYLVLLFPVFLATDYLH [R24H] : 2.63

protein stability index in this record for IYKVWTYSYLVLLFPVFLATDYLR [P3K] : 2.02

protein stability index in this record for IYPVWTYSYLMLLFPVFLATDYLR [V11M] : 1.95

protein stability index in this record for IYPVWTYSYLVLLKPVFLATDYLR [F14K] : 1.99

protein stability index in this record for IMPVWTYSYLVLLFPVFLATDYLR [Y2M] : 3.15

protein stability index in this record for IYPVWTYSYLHLLFPVFLATDYLR [V11H] : 3.87

protein stability index in this record for IYPVWTQSYLVLLFPVFLATDYLR [Y7Q] : 2.58

protein stability index in this record for IYPVWTYSYLDLLFPVFLATDYLR [V11D] : 3.85

protein stability index in this record for IYPVWTYSYLVLAFPVFLATDYLR [L13A] : 3.41

protein stability index in this record for IYPVWTYSYLVKLFPVFLATDYLR [L12K] : 3.56

protein stability index in this record for IYPVWTYSYLVLLFCVFLATDYLR [P15C] : 3.79

protein stability index in this record for IYPVWDYSYLVLLFPVFLATDYLR [T6D] : 2.08

protein stability index in this record for IYPVWTYSYLVLLFPVFPATDYLR [L18P] : 3.1

protein stability index in this record for IYPLWTYSYLVLLFPVFLATDYLR [V4L] : 3.73

protein stability index in this record for IYPVWTYSYLVLLFPVFLATCYLR [D21C] : 2.36

protein stability index in this record for IYPVWTYSYLVLLFPVGLATDYLR [F17G] : 2.81

protein stability index in this record for IYPNWTYSYLVLLFPVFLATDYLR [V4N] : 3.44

protein stability index in this record for IYPVWTYSYLVLLFPVFLATSYLR [D21S] : 2.09

protein stability index in this record for IYPVWTYSYLVLLFPVPLATDYLR [F17P] : 4.41

protein stability index in this record for IYPQWTYSYLVLLFPVFLATDYLR [V4Q] : 3.11

protein stability index in this record for IYPVWTYSYLVLLFPLFLATDYLR [V16L] : 2.41

protein stability index in this record for IYPVWTYSYLVLLFPVFLATDELR [Y22E] : 2.71

protein stability index in this record for IYPVWTYEYLVLLFPVFLATDYLR [S8E] : 3.31

protein stability index in this record for IYPVWTYSTLVLLFPVFLATDYLR [Y9T] : 2.67

protein stability index in this record for IYPVWTYWYLVLLFPVFLATDYLR [S8W] : 2.99

protein stability index in this record for IYPVWTYSYLVLLFPVCLATDYLR [F17C] : 2.97

protein stability index in this record for IYPVYTYSYLVLLFPVFLATDYLR [W5Y] : 2.72

protein stability index in this record for IYPVWTYSYLVRLFPVFLATDYLR [L12R] : 2.37

protein stability index in this record for IYPVWTYHYLVLLFPVFLATDYLR [S8H] : 3.06

protein stability index in this record for AYPVWTYSYLVLLFPVFLATDYLR [I1A] : 2.12

protein stability index in this record for IYCVWTYSYLVLLFPVFLATDYLR [P3C] : 3.34

protein stability index in this record for IYPVMTYSYLVLLFPVFLATDYLR [W5M] : 2.65

protein stability index in this record for IYPVWTYSYSVLLFPVFLATDYLR [L10S] : 3.94

protein stability index in this record for IYPVWTYSYLVLLFPVFLATDYLL [R24L] : 2.41

protein stability index in this record for IYPVWTYSYLVMLFPVFLATDYLR [L12M] : 2.48

protein stability index in this record for IYPVWTYSYIVLLFPVFLATDYLR [L10I] : 2.9

protein stability index in this record for ITPVWTYSYLVLLFPVFLATDYLR [Y2T] : 4.06

protein stability index in this record for IYPVWTYSYLVLMFPVFLATDYLR [L13M] : 3.06

protein stability index in this record for IYPVWTYSYLVLLFPVFLATDYKR [L23K] : 2.22

protein stability index in this record for IYPVWQYSYLVLLFPVFLATDYLR [T6Q] : 2.73

protein stability index in this record for IYPVWTYSYLVLLFPPFLATDYLR [V16P] : 2.42

protein stability index in this record for IYPVWTYSYLVLLFFVFLATDYLR [P15F] : 2.95

protein stability index in this record for IYPVWTYSYLVLLFPVFLATDGLR [Y22G] : 1.66

protein stability index in this record for IYPVWTYSYLVLGFPVFLATDYLR [L13G] : 1.19

protein stability index in this record for IYPVWTYSYLVLLFPVFLATNYLR [D21N] : 2.65

protein stability index in this record for IYPVWTYSYLWLLFPVFLATDYLR [V11W] : 4.19

protein stability index in this record for IYPVWTYSYLVLLFPVFLAPDYLR [T20P] : 3.55

protein stability index in this record for IYPVWTYSYLVLLFPVFLHTDYLR [A19H] : 2.48

protein stability index in this record for IYPVWTYSYLVILFPVFLATDYLR [L12I] : 3.39

protein stability index in this record for IYPVWTYSYLVLLFPMFLATDYLR [V16M] : 2.55

protein stability index in this record for IYPVWTYSYLVLIFPVFLATDYLR [L13I] : 2.53

protein stability index in this record for IYPVWTYSYLVLLFPVFLAIDYLR [T20I] : 4.41

protein stability index in this record for IYPVWTYSYLVLLFPVWLATDYLR [F17W] : 2.19

protein stability index in this record for IYHVWTYSYLVLLFPVFLATDYLR [P3H] : 3.02

protein stability index in this record for IYPVWTYSYLVLLFPVFLMTDYLR [A19M] : 2.59

protein stability index in this record for IYPVWTYDYLVLLFPVFLATDYLR [S8D] : 3.67

protein stability index in this record for IYPVWTYSVLVLLFPVFLATDYLR [Y9V] : 3.11

protein stability index in this record for IYPVWTYSYLVHLFPVFLATDYLR [L12H] : 3.3

protein stability index in this record for IYPVWKYSYLVLLFPVFLATDYLR [T6K] : 3.04

protein stability index in this record for IYPVWTYSYLVLLFPVFLATDYLW [R24W] : 3.24

protein stability index in this record for IYPVWTYSYLVLLFPVFLATYYLR [D21Y] : 3.42

protein stability index in this record for IYPVWTYSYLVLLFPVFLATDYGR [L23G] : 3.42

protein stability index in this record for IYYVWTYSYLVLLFPVFLATDYLR [P3Y] : 2.94

protein stability index in this record for IYPVWTYSNLVLLFPVFLATDYLR [Y9N] : 3.02

protein stability index in this record for IYPVWTYSYLVLLFPVFLYTDYLR [A19Y] : 3.37

protein stability index in this record for TYPVWTYSYLVLLFPVFLATDYLR [I1T] : 3.48

protein stability index in this record for IYPVWTYSYLVLLFPVALATDYLR [F17A] : 3.59

protein stability index in this record for IYPVWTYSYLVLLFPVKLATDYLR [F17K] : 3.78

protein stability index in this record for IYPVWTYSYLILLFPVFLATDYLR [V11I] : 3.28

protein stability index in this record for IYPVWTYSYLVLLFPVFFATDYLR [L18F] : 2.3

protein stability index in this record for IYPVWTYSYLVLLFPVFLATDYWR [L23W] : 3.21

protein stability index in this record for IYPVWTYSYLVLLFPVYLATDYLR [F17Y] : 2.43

protein stability index in this record for IYPVWTYSKLVLLFPVFLATDYLR [Y9K] : 2.81

protein stability index in this record for IYPVWTYSYLVLLFPVFKATDYLR [L18K] : 2.51

protein stability index in this record for IYPVWTYSYDVLLFPVFLATDYLR [L10D] : 4.06

protein stability index in this record for IYPVWTYSYLVLLMPVFLATDYLR [F14M] : 4.1

protein stability index in this record for IYPVWYYSYLVLLFPVFLATDYLR [T6Y] : 3.51

protein stability index in this record for IYPVWTYSYPVLLFPVFLATDYLR [L10P] : 2.29
